test: Metabolic stability in rat liver microsomes assessed as half life; type: ADME, Microsome
// reported half-life per item

| compound_structure_string | half-life |
| --- | --- |
| CC(C)(C)NC(=O)N1CCC[C@H]1C(=O)N1CCC(NS(=O)(=O)c2cc(S(=O)(=O)c3ccccc3)ccc2C(F)(F)F)CC1 | > 3 min |
| CC(C)(C)OC(=O)N1CCC[C@H]1C(=O)N1CCC(NS(=O)(=O)c2cc(S(=O)(=O)c3ccccc3)ccc2C(F)(F)F)CC1 | > 1 min |
| CC(C)(C)CC(=O)N1CCC[C@H]1C(=O)N1CCC(NS(=O)(=O)c2cc(S(=O)(=O)c3ccccc3)ccc2C(F)(F)F)CC1 | > 3 min |

Turning now to a further record.
Any idea what its half-life is? The molecule is CC(C)(C)CCN1CCC[C@H]1C(=O)N1CCC(NS(=O)(=O)c2cc(S(=O)(=O)c3ccccc3)ccc2C(F)(F)F)CC1
> 8 min

====

test: Metabolic stability in rat liver microsomes assessed as half life in presence of NADPH; type: ADME, Microsome
property_name: half-life

Any idea what its half-life is? The compound is O=S(=O)(NC1CCNCC1)c1cc(S(=O)(=O)c2ccccc2)ccc1C(F)(F)F
> 1 h
